Each recorded value in this set is attributed to PubChem BioAssay (NCI).

Listed next: entries and their corresponding growth.
Test system: NCI-H460 lung
Assay: NCI-60 one-dose screen, 48 h (100 = growth as untreated, 0 = no growth, -100 = all killed)
Conditions: 10 µM unless noted
About 83,000 compounds went through this panel and 20% of them were active in at least one assay; those are over-represented in the sample as a whole.
quantity: growth (%)

[
  {
    "smiles.notation": "Cc1ccc2c(NCCCN(C)C)c3c(C)nn(C)c3nc2c1",
    "quantity": "growth",
    "recorded.measurement": 8.82
  },
  {
    "smiles.notation": "CCOC(=O)N1CCN(c2nc(Nc3cc(C)[nH]n3)c3ccccc3n2)CC1",
    "quantity": "growth",
    "recorded.measurement": 23.1
  },
  {
    "smiles.notation": "COc1cc(NCCCCN=C(N)NC(N)=NC(C)C)c2ncccc2c1",
    "quantity": "growth",
    "recorded.measurement": 74.4
  },
  {
    "smiles.notation": "Nc1cc2nc3ccccc3sc-2cc1=O",
    "quantity": "growth",
    "recorded.measurement": 75
  }
]

----------
System: MCF7 breast
Assay: NCI-60 one-dose screen, 48 h
Conditions: 10 µM unless noted
This is part of a sample that, as a whole, favours compounds with a hit. Of some 83,000 tested, about 20% had one in any assay. The source made the active and inactive calls. How the source made its calls: active means growth percent below 10; inactive means the rest.
Classes used: active, inactive

[
  {
    "molecule": "CSc1nc(NCCCNc2ccnc3cc(Cl)ccc23)cc(-c2ccccc2)n1",
    "assigned.label": "active"
  },
  {
    "molecule": "COc1ccc(CCN2CC=Cn3c2nc2ccccc2c3=O)cc1",
    "assigned.label": "inactive"
  },
  {
    "molecule": "OCC1C2C=CC(C2)C1CO (stereo unspecified)",
    "assigned.label": "inactive"
  },
  {
    "molecule": "O=c1ccc2cc3ccccc3cc2[nH]1",
    "assigned.label": "inactive"
  },
  {
    "molecule": "Cc1noc(C)c1-c1cc(O)cc(C(O)c2ccccc2)c1 (stereo unspecified)",
    "assigned.label": "inactive"
  },
  {
    "molecule": "C(=N\\Nc1ccccn1)/c1ccccn1",
    "assigned.label": "inactive"
  },
  {
    "molecule": "CC(C)Oc1nc2c(c(=O)n(C)c(=O)n2C)n1C",
    "assigned.label": "inactive"
  },
  {
    "molecule": "CNCCCn1c2c(c3ccc([N+](=O)[O-])cc3c1=O)C(=O)c1cc(OC)cnc1-2",
    "assigned.label": "active"
  },
  {
    "molecule": "COc1cc(C2CC(=O)Nc3c2c(C)nn3-c2nc3ccccc3[nH]2)cc(OC)c1OC (stereo unspecified)",
    "assigned.label": "inactive"
  },
  {
    "molecule": "COc1cc(NCCCCN=C(N)N)c2ncccc2c1",
    "assigned.label": "active"
  },
  {
    "molecule": "COc1ccc(-c2cc(-c3cccnc3)nc3sc4c(=O)n(-c5ccc(C)cc5)nnc4c23)cc1OC",
    "assigned.label": "inactive"
  },
  {
    "molecule": "COc1cccc(/C=C2/C(=O)N(Cc3ccco3)SC2=S)c1OC",
    "assigned.label": "inactive"
  },
  {
    "molecule": "COCCCNc1nc(NC(=O)c2ccc(F)cc2C)cc(-c2cccnc2)n1",
    "assigned.label": "inactive"
  },
  {
    "molecule": "O=C(O)c1cccc2c1-c1ccccc1C2=O",
    "assigned.label": "inactive"
  },
  {
    "molecule": "CC[C@H](Nc1nc(N)nc(C)c1C#N)c1nc2cccc(NCc3ccc(C(=O)NO)cc3)c2c(=O)n1-c1ccccc1",
    "assigned.label": "active"
  },
  {
    "molecule": "COc1ccc(-c2c3c(nc4n[nH]c(-c5ccc(Cl)cc5)c24)-c2ccccc2C(=O)C3=O)cc1",
    "assigned.label": "active"
  }
]

----------
Test system: RPMI-8226 leukemia
Assay: NCI-60 one-dose screen, 48 h (100 = growth as untreated, 0 = no growth, -100 = all killed)
Conditions: 10 µM unless noted
This is part of a sample that, as a whole, favours compounds with a hit. Of some 83,000 tested, about 20% had one in any assay.

[
  {
    "smiles.notation": "COc1ccccc1-c1ccc2c(N)c(C(=O)c3ccc4c(c3)OCO4)sc2n1",
    "growth / %": 62.2
  },
  {
    "smiles.notation": "CSc1nc2sc3c(c2c(=O)n1-c1ccc(C(C)C)cc1)CCC(=O)C3",
    "growth / %": -29.9
  },
  {
    "smiles.notation": "COc1cnc2c(c1)C(=O)c1c-2n(CCCBr)c(=O)c2cc([N+](=O)[O-])ccc12",
    "growth / %": -12.9
  },
  {
    "smiles.notation": "Cc1cc(N/N=C/c2nc(-c3ccc(Cl)cc3)oc2C)c2cc(Cl)ccc2n1",
    "growth / %": -35.5
  },
  {
    "smiles.notation": "O=C1Nc2c(ccc(Cl)c2Cl)/C1=C/c1cc(Br)c(O)c(Br)c1",
    "growth / %": 14.8
  },
  {
    "smiles.notation": "CN1/C(=C\\C=C\\C2=[N+](C)c3ccccc3C2(C)C)C(C)(C)c2ccccc21",
    "growth / %": -8.69
  },
  {
    "smiles.notation": "O=C(Nc1ccc(Oc2ccc(F)cc2)c(Cl)c1)c1cccnc1",
    "growth / %": 87.3
  }
]

----------
Listed next: entries and their corresponding growth.
Tested on: SNB-19 CNS
Experiment: NCI-60 one-dose screen, 48 h (100 = growth as untreated, 0 = no growth, -100 = all killed)
Details: 10 µM unless noted
This is part of a sample that, as a whole, favours compounds with a hit. Of some 83,000 tested, about 20% had one in any assay. Calls of active or inactive are those of the source. Rule for the calls: active = growth percent below 10; inactive = the rest.
quantity: growth

[
  {
    "molecule": "COc1cccc(-c2nc3sccn3c2-c2ccnc(NCCCNS(=O)(=O)c3ccc(Cl)cc3)c2)c1",
    "recorded.measurement": "69.4% (inactive)"
  },
  {
    "molecule": "CC1=C(C)C(=O)OC([C@](C)(O)[C@]2(O)CC[C@@]3(O)[C@@H]4C[C@H]5O[C@]56CC=CC(=O)[C@]6(C)[C@H]4CC[C@]23COC(=O)c2ccc(C)o2)C1 (stereo partly specified)",
    "recorded.measurement": "-85% (active)"
  },
  {
    "molecule": "CSc1nc(NCCCNc2ccnc3cc(Cl)ccc23)cc(-c2ccccc2)n1",
    "recorded.measurement": "91.9% (inactive)"
  },
  {
    "molecule": "CCOC(=O)c1c2c(n3ccc(NC(=O)CCN(CC)CC)cc13)C(=O)c1ncccc1C2=O",
    "recorded.measurement": "53.3% (inactive)"
  },
  {
    "molecule": "COc1ccc(S(=O)(=O)NCCCNc2cc(-c3c(-c4cccc(OC)c4)nc4sccn34)ccn2)cc1",
    "recorded.measurement": "62.7% (inactive)"
  },
  {
    "molecule": "CCCCCCCCCCCCNC(=O)[C@H]1CSC(c2ccc(OC)c(F)c2)N1 (stereo partly specified)",
    "recorded.measurement": "-92.6% (active)"
  }
]

----------
Test system: NCI-H23 lung
Assay: NCI-60 one-dose screen, 48 h
Conditions: 10 µM unless noted
This is part of a sample that, as a whole, favours compounds with a hit. Of some 83,000 tested, about 20% had one in any assay. Calls of active or inactive are those of the source. Rule for the calls: active = growth percent below 10; inactive = the rest.
Classes used: active, inactive

[
  {
    "molecule": "CN1C2CCC1/C(=C\\c1ccc(Cl)cc1)C1=C2[C@@H](c2ccc(Cl)cc2)C(C#N)=C(N)O1 (some centres undefined)",
    "target.system": "NCI-H23 lung",
    "assigned.label": "inactive"
  },
  {
    "molecule": "CSc1nc(NCCCNc2ccnc3cc(Cl)ccc23)cc(-c2ccccc2)n1",
    "target.system": "NCI-H23 lung",
    "assigned.label": "inactive"
  },
  {
    "molecule": "CCN(CC)CC(O)c1cc(-c2ccc(Cl)cc2)nc2c(C)c(Cl)ccc12 (centres undefined)",
    "target.system": "NCI-H23 lung",
    "assigned.label": "active"
  },
  {
    "molecule": "CCOC(=O)c1cnc2ccc(OC)cc2c1Nc1cccc(S(=O)(=O)NC)c1",
    "target.system": "NCI-H23 lung",
    "assigned.label": "inactive"
  },
  {
    "molecule": "O=C1O[C@H]([C@H](O)CO)C(O)=C1O",
    "target.system": "NCI-H23 lung",
    "assigned.label": "inactive"
  },
  {
    "molecule": "O=C(Nc1nc(-c2ccccc2)cc(-c2ccc(Cl)cc2)n1)c1ccncc1",
    "target.system": "NCI-H23 lung",
    "assigned.label": "inactive"
  },
  {
    "molecule": "Cc1ccc2cnc(N)c(C#Cc3cncc(C(=O)Nc4ccc(CN5CCN(C)CC5)c(C(F)(F)F)c4)c3)c2c1",
    "target.system": "NCI-H23 lung",
    "assigned.label": "active"
  },
  {
    "molecule": "O=S(=O)(Nc1ccc(Cl)cc1Cl)c1ccc(-c2cnc(C3CC3)o2)cc1",
    "target.system": "NCI-H23 lung",
    "assigned.label": "inactive"
  },
  {
    "molecule": "O=C1/C(=C/c2ccc(Cl)cc2Cl)CN(S(=O)(=O)c2ccccc2)C/C1=C\\c1ccc(Cl)cc1Cl",
    "target.system": "NCI-H23 lung",
    "assigned.label": "active"
  }
]
